target: pneumolysin (Streptococcus pneumoniae serotype 2, UniProt Q04IN8); experiment: Inhibition of the haemolytic activity of pneumolysin (sheep erythrocytes); format: cell-based; conditions: IC50, inhibition of pneumolysin-induced haemolysis of sheep erythrocytes; specific values
Sequence (Q04IN8 whole entry): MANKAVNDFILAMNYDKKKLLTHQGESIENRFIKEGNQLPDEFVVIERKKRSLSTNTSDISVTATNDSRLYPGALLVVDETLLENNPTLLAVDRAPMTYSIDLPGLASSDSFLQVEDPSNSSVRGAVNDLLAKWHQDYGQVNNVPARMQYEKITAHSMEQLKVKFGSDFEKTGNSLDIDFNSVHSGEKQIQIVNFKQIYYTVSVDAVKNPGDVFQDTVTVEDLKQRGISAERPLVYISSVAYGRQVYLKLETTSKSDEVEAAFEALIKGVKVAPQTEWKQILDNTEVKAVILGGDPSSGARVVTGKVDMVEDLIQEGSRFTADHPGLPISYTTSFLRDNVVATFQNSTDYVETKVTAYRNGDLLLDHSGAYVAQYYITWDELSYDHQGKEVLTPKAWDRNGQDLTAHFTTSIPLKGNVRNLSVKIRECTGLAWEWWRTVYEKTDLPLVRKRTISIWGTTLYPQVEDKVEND
Measured IC50 by item
Give the value, in units of nM, as a plain number.

Some solved cases for reference:
[
  {
    "MOLECULE": "CCOC(=O)c1c(O)c(O)c(-c2nn[nH]n2)n1-c1ccc(OC)cc1 [UL1-089]",
    "IC50 / nM": 400
  },
  {
    "MOLECULE": "COc1ccc(-n2c(C(=O)OC(C)C)c(O)c(O)c2C(=O)N(C)C)cc1 [UL1-035]",
    "IC50 / nM": 150
  }
]

State its IC50: CN(C)C(=O)c1c(O)c(O)c(C(=O)N(C)C)n1-c1ccc(C(F)(F)F)cc1 [UL1-028] 68

Tell me measured IC50 for CCOC(=O)c1c(O)c(O)c(C(=O)OCC)n1-c1ccc(OC)cc1 [UL2-001] please. 300

Give a short answer stating reported IC50 for CCOC(=O)c1c(O)c(O)c(C(=O)N(C)C)n1-c1ccc(OC)cc1 [UL1-012] . 150

Using the record for COc1ccc(-n2c(C(=O)N3CCCCC3)c(OCc3ccccc3)c(OCc3ccccc3)c2C(=O)N2CCCCC2)cc1 [UL1-049] , state its measured IC50. 479

Identify the reported IC50 for the following entry. CCNC(=O)c1c(O)c(O)c(C(=O)N(C)C)n1-c1ccc(OC)cc1 [UL1-024] 182

Tell us which IC50 value is on record for COc1ccc(-n2c(C(=O)OC3CCCC3)c(O)c(O)c2C(=O)N(C)C)cc1 [UL1-116] 180

For COc1ccc(-n2c(C(=O)N3CCOCC3)c(O)c(O)c2C(=O)N2CCOCC2)cc1 [UL1-004] , write its IC50. 170

Provide only the value of recorded IC50 for CCOC(=O)c1c(O)c(O)c(C(=O)N(C)C)n1-c1ccc(OCCCP(=O)(OCC)OCC)cc1 [UL1-106] 170

Report measured IC50; entry is COc1ccc(-n2c(C(=O)N(C)C)c(O)c(O)c2C(=O)N(C)C)cc1 [UL1-005] 150

====

molecular target: Streptolysin O (SLO) (Streptococcus pyogenes serotype M3, UniProt P0DF97); experiment: Inhibition of the haemolytic activity of Streptolysin O; conditions: toxin SLO; haemolysis assay protocol of Section A
Sequence (P0DF97 34-571): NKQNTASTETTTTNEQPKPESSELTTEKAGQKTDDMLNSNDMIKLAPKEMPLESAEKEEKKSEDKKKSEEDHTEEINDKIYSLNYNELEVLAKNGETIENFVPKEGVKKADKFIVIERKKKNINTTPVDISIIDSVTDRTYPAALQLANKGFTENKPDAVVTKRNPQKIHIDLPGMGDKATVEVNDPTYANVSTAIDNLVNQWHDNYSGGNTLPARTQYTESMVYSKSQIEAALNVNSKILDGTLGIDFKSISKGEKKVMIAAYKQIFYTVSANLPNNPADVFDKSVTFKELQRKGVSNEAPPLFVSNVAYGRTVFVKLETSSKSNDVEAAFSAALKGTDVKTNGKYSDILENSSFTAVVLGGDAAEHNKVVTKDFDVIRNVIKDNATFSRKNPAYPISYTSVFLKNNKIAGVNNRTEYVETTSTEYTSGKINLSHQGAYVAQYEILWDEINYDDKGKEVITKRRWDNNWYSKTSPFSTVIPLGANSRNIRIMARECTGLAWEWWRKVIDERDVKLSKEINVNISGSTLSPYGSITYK
pIC50: −log10 of the molar value.
QUANTITY: pIC50

[
  {
    "CHEMICAL SMILES": "CCOC(=O)c1c(O)c(O)c(C(=O)N(C)C)n1-c1ccc(OC)cc1",
    "pIC50": "> 5.00"
  }
]

Continue with the next molecule.
Tell me pIC50 reported for `CCOC(=O)c1c(O)c(O)c(C(=O)OCC)n1-c1ccc(OC)cc1` 4.22 to 4.70

====

target: pneumolysin (Streptococcus pneumoniae serotype 2, UniProt Q04IN8); assay: Inhibition of pneumolysin-induced lactate dehydrogenase release from A549 cells; format: cell-based
pIC50: −log10 of the molar value.
QUANTITY: pIC50

Write down measured pIC50 (pneumolysin (Streptococcus pneumoniae serotype 2, UniProt Q04IN8)) for this molecule. CCOC(=O)c1c(O)c(O)c(C(=O)N(C)C)n1-c1ccc(OC)cc1 [UL1-012] > 6.40

====

target: UniProtKB Q04IN8; assay: Inhibition of the haemolytic activity of pneumolysin (sheep erythrocytes); format: cell-based; details: IC50, inhibition of pneumolysin-induced haemolysis of sheep erythrocytes; class symbols of Table 1
# IC50 values compiled below

Below are worked cases with known answers.
[
  {
    "CHEMICAL SMILES": "CCOC(=O)c1c(O)c(O)c(C(=O)N(C)C)n1-c1ccc(OCCCP(=O)(O)O)cc1",
    "TESTED ON": "UniProtKB Q04IN8",
    "IC50": "< 10 µM"
  },
  {
    "CHEMICAL SMILES": "CCOC(=O)c1c(O)c(O)c(C(=O)OCC)n1-c1ccc(OCc2ccc(OC)cc2)cc1",
    "TESTED ON": "UniProtKB Q04IN8",
    "IC50": "< 10 µM"
  },
  {
    "CHEMICAL SMILES": "CCOC(=O)c1c(O)c(O)c(C(=O)N(C)C)n1-c1ccc(OC)c(I)c1",
    "TESTED ON": "UniProtKB Q04IN8",
    "IC50": "< 10 µM"
  }
]

Find the measured IC50 of `NC(=O)c1c(OCc2ccccc2)c(OCc2ccccc2)c(C(N)=O)n1-c1ccc(F)cc1` and report it. 20 to 60 µM

Give me measured IC50, please, for this compound: `CCOC(=O)c1c(O)c(O)c(C(=O)N(C)C)n1-c1ccc(OCCCP(=O)(OCC)OCC)cc1` < 10 µM

Identify measured IC50 associated with `CCOC(=O)c1c(O)c(O)c(C#N)n1-c1ccc(F)cc1` 20 to 60 µM

Read the entry `CCOC(=O)c1c(OCc2ccccc2)c(OCc2ccccc2)c(-c2nn[nH]n2)n1-c1ccc(OC)cc1` and write its reported IC50. < 10 µM

Output IC50 of `CCOC(=O)c1c(O)c(O)c(C(=O)OCC)n1-c1ccc(OCCCN2CCOCC2)cc1` < 10 µM

====

# [ ] (μM) t30 min. Prodrug annotations
test: Conversion of prodrug derivatives to active inhibitors in mouse plasma; format: in vitro ADME; conditions: 37° C., 10 μM start, prodrug remaining, 30 min
Just the number please, in µM, no unit attached.

[
  {
    "COMPOUND": "CCOC(=O)c1c(O)c(OP(=O)(O)O)c(C(=O)N(C)C)n1-c1ccc(OC)cc1 [UL1-070]",
    "MEASURE UNIT": "µM",
    "OBSERVED": 4.73
  },
  {
    "COMPOUND": "CCOC(=O)c1c(OP(=O)(OCC)OCC)c(O)c(C(=O)N(C)C)n1-c1ccc(OC)cc1 [UL1-094]",
    "MEASURE UNIT": "µM",
    "OBSERVED": 9.22
  },
  {
    "COMPOUND": "CCOC(=O)c1c(O)c(OC(=O)N2CCC(N3CCCCC3)CC2)c(C(=O)N(C)C)n1-c1ccc(OC)cc1 [UL1-071]",
    "MEASURE UNIT": "µM",
    "OBSERVED": 9.00
  },
  {
    "COMPOUND": "CCOC(=O)c1c(O)c(OS(N)(=O)=O)c(C(=O)N(C)C)n1-c1ccc(OC)cc1 [UL1-069]",
    "MEASURE UNIT": "µM",
    "OBSERVED": 9.70
  },
  {
    "COMPOUND": "CCOC(=O)c1c(OC(=O)CCOCCOC)c(OC(=O)CCOCCOC)c(C(=O)N(C)C)n1-c1ccc(OC)cc1 [UL1-105]",
    "MEASURE UNIT": "µM",
    "OBSERVED": 0
  }
]

Quickly give me recorded [ ] (μM) t30 min. Prodrug for CCOC(=O)c1c(O)c(OCOP(=O)(O)O)c(C(=O)N(C)C)n1-c1ccc(OC)cc1 [UL1-109] 4.84

Identify the reported [ ] (μM) t30 min. Prodrug for the following entry. CCOC(=O)c1c(OC(=O)N(C)C)c(OC(=O)N(C)C)c(C(=O)N(C)C)n1-c1ccc(OC)cc1 [UL1-063] 9.20

Specify [ ] (μM) t30 min. Prodrug for COc1ccc(-n2c(C(=O)N(C)C)c(OC(=O)C(C)C)c(OC(=O)C(C)C)c2C(=O)N(C)C)cc1 [UL1-114] and stop. 0

Kindly indicate its recorded [ ] (μM) t30 min. Prodrug. Item: CCOC(=O)c1c(OC(=O)N2CCN(C)CC2)c(OC(=O)N2CCN(C)CC2)c(C(=O)N(C)C)n1-c1ccc(OC)cc1 [UL1-064] 7.00

Supply [ ] (μM) t30 min. Prodrug value. Item: CCOC(=O)c1c(OC(=O)N2CCC(N3CCCCC3)CC2)c(OC(=O)N2CCC(N3CCCCC3)CC2)c(C(=O)N(C)C)n1-c1ccc(OC)cc1 [UL1-065] 3.72

Consider the compound CCOC(=O)c1c(OP(=O)(OCC)OCC)c(OP(=O)(OCC)OCC)c(C(=O)N(C)C)n1-c1ccc(OC)cc1 [UL1-092] . State its measured [ ] (μM) t30 min. Prodrug. 4.67

State, in one line, measured [ ] (μM) t30 min. Prodrug of CCOC(=O)c1c(OCOP(=O)(O)O)c(O)c(C(=O)N(C)C)n1-c1ccc(OC)cc1 [UL1-115] 4.04

Please give the documented [ ] (μM) t30 min. Prodrug of CCOC(=O)c1c(OC(C)=O)c(OC(C)=O)c(C(=O)N(C)C)n1-c1ccc(OC)cc1 [UL1-044] 0

Please report [ ] (μM) t30 min. Prodrug for the following compound: CCOC(=O)c1c(OC(=O)C(C)(C)COCCCOP(=O)(O)O)c(OC(=O)C(C)(C)COCCCOP(=O)(O)O)c(C(=O)N(C)C)n1-c1ccc(OC)cc1 [UL1-118] 4.00

Check the records and state [ ] (μM) t30 min. Prodrug for CCOC(=O)c1c(OC(=O)C(C)(C)C)c(OC(=O)C(C)(C)C)c(C(=O)N(C)C)n1-c1ccc(OC)cc1 [UL1-068] 1.00
